Values were extracted from patent US20260365670A1.

We begin with a simple list: items and their reported log10 GI50.
Test system: Ba/F3 cells expressing EGFR mutations
Test protocol: Cell proliferation assay, Ba/F3 cells expressing EGFR mutations (CellTiter-Glo, 72 hours)
Type: cell-based
Condition notes: Mus musculus, BaF3, 72 h, BaF3 cells, EGFR L858R - T790-C797S, read-out: GI50 L858R - T790-C797S/BaF3
Transform log10 | Measure GI50 | Unit nM

Example cases with answers are listed next.
Cc1cc2cc(n1)-c1cnn(C)c1OCCN1CC3CCC(C3)(C1)n1c(nc3ccccc31)NC2=O (single isomer, unassigned) [Example B8A] : 2.46
Cc1cc2cc(n1)-c1cnn(C)c1OCCN1CC3CCC(CC3)(C1)n1c(nc3ccc(N(C)CCCN(C)C)cc31)NC2=O : 0.85
CN1CCN(c2cc3c(cc2F)nc2n3C34CCC(CC3)CN(CCOc3c(cnn3C)-c3cc(cn(C)c3=O)C(=O)N2)C4)CC1 : 1.83
Cc1cc2cc(n1)-c1cnn(C)c1OCCN1CC3CCC(CC3)(C1)n1c(nc3ccc(N4CC5CCN(C)C5C4)cc31)NC2=O (stereo not shown) : 0.85
CN1CC2CN(c3ccc4nc5n(c4c3)C34CCC(CC3)CN(CCOc3c(cnn3C)-c3cc(cn(C)c3=O)C(=O)N5)C4)CC2C1 (stereo not shown) : 1.26
Cc1cc2cc(n1)-c1cnn(C)c1OCCN1CC3CCC(CC3)(C1)n1c(nc3ccccc31)NC2=O : 1.71
Cc1cc2cc(n1)-c1cnn(C)c1OCCC[C@@H](C)Cn1c(nc3ccc4c(c31)CCN(CCN(C)C)C4)NC2=O : -0.42
CN(C)CCN(C)c1ccc2nc3n(c2c1)C12CCC(CC1)CN(CCOc1c(cnn1C)-c1cc(cn(C)c1=O)C(=O)N3)C2 : 1.04
Cc1cc2cc(n1)-c1cnn(C)c1OCCCCCn1c(nc3ccc4c(c31)CN(C1COC1)CC4)NC2=O : 1.38
Cc1cc2cc(n1)-c1cnn(C)c1OCCN1CC3CCC(C3)(C1)n1c(nc3ccccc31)NC2=O (stereo not shown) [Example B8B] : 0.38

Q) For the molecule shown here, Cc1cc2cc(n1)-c1cnn(C)c1OCCN1CCOCC(C1)n1c(nc3ccccc31)NC2=O (single isomer, unassigned) , give the reported log10 GI50.
A) 2.47

Q) Again, but for "Cc1cc2cc(n1)-c1cnn(C)c1OCCN1CC3CCC(CC3)(C1)n1c(nc3ccc(N4CC[C@@H](N(C)C)C4)cc31)NC2=O"
A) 1.28

Q) Again, but for "Cc1cc2cc(n1)-c1cnn(C)c1OCCN1CC3CCC(CC3)(C1)n1c(nc3ccc(N4CCC(N(C)C)CC4)cc31)NC2=O"
A) 0.30

====

We begin with a simple list: items and their reported pIC50.
Measured on: EGFR Exon19Del/T790M (Homo sapiens, UniProt P00533, DEL746-750/T790M)
Construct: purchased Carna Bio
Sequence (P00533 with tags, fused parts or gaps DEL746-750/T790M limits assumed): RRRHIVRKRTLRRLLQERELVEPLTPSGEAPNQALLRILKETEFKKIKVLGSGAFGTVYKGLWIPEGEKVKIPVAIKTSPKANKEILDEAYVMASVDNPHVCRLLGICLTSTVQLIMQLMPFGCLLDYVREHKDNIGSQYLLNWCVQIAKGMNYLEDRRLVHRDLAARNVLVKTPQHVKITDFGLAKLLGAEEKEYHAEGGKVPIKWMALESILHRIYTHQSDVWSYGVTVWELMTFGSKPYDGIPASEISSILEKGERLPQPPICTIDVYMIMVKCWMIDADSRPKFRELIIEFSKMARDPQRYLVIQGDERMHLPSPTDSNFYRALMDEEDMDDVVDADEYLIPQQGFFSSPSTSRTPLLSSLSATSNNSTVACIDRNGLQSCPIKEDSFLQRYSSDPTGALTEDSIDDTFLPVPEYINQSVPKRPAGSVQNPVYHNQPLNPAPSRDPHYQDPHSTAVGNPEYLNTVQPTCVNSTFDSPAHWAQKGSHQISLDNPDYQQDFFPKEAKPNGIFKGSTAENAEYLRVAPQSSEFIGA
Test protocol: Inhibition of EGFR Exon19Del/T790M biochemical enzymatic activity (HTRF)
Condition notes: EGFR Exon19Del/T790M, 1 mM ATP, 1 h at room temperature, read-out: IC50 @Del19-T790M
Quick note: pIC50 means taking -log10 of the concentration in moles per liter.

Cc1cc2cc(n1)-c1cnn(C)c1OCCCCCn1c(nc3ccn(C)c(=O)c31)NC2=O [Example B20] : 6.16
Cc1cc2cc(n1)-c1cnn(C)c1OCCN1CC3CCC(C3)(C1)n1c(nc3ccc(N4CCC5(CCN(C)C5)CC4)cc31)NC2=O (single isomer, unassigned) [Example B52B] : 8.35
CCN1CCN(c2ccc3nc4n(c3c2)C23CCC(CN(CCOc5c(cnn5C)-c5cc(cc(C)n5)C(=O)N4)C2)C3)CC1 (single isomer, unassigned) [Example B56B] : 8.39
Cc1cc2cc(n1)-c1cnn(C)c1OCCN1CC3CCC(C3)(C1)n1c(nc3ccc(N4CC5CN(C)CC5C4)cc31)NC2=O (single isomer, unassigned) [Example B43A] : 5.94
Cc1cc2cc(n1)-c1cnn(C)c1OCCN1CC3CCC(CC3)(C1)n1c(nc3ccc(N4CC[C@@H](N(C)C)C4)cc31)NC2=O [Example B29] : 7.77

Now let's try a different one.
Q) For the compound shown here, Cc1cc2cc(n1)-c1cnn(C)c1OCCN1CC3CCC(CC3)(C1)n1c(nc3ccc(N4CCN(C5CC5)CC4)cc31)NC2=O [Example B36] , give the reported pIC50.
A) 8.24

====

Measured on: EGFR L858R/T790M (Homo sapiens, UniProt P00533, L858R/T790M)
Construct: purchased Carna Bio
Sequence (P00533 25-1210 T790M/L858R): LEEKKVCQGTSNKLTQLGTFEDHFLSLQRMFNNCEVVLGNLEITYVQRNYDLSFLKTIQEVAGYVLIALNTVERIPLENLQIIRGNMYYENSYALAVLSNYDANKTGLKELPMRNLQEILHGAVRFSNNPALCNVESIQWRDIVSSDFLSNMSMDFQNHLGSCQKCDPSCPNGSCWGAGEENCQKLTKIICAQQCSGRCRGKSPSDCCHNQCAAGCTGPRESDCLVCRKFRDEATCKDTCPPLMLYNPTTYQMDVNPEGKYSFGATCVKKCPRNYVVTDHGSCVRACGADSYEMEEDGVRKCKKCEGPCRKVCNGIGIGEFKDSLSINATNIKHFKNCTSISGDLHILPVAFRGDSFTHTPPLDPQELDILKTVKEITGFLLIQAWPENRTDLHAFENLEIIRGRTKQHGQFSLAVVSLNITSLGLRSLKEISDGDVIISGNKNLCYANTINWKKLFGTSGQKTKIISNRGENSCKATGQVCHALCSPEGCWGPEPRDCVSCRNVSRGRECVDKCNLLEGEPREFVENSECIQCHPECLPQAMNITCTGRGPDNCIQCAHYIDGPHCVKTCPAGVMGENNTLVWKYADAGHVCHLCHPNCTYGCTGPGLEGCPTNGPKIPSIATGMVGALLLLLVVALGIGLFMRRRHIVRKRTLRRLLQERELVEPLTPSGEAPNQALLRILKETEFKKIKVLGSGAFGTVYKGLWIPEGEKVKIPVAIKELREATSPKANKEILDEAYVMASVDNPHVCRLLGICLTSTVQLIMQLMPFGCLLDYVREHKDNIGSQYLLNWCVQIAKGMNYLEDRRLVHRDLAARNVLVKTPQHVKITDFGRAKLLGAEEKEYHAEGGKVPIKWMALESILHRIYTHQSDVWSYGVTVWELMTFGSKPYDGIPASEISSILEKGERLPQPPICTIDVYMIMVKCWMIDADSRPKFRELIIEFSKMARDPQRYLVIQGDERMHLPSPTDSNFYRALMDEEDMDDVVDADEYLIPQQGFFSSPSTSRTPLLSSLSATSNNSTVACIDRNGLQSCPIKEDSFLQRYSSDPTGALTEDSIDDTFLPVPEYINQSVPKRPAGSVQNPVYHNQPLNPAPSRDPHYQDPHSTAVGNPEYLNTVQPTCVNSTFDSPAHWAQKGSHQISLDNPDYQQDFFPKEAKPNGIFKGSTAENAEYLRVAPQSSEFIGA
Test protocol: Inhibition of EGFR L858R/T790M biochemical enzymatic activity (HTRF)
Condition notes: EGFR L858R-T790M, 1 mM ATP, 1 h, room temperature, read-out: IC50 (nM) @L858R-T790M
Attribute measured: IC50

Example cases with answers are listed next.
CN(C)CCC1CN(c2ccc3nc4n(c3c2)C23CCC(CN(CCOc5c(cnn5C)-c5cc(cn(C)c5=O)C(=O)N4)C2)C3)C1 (single isomer, unassigned) [Example A95A] : > 5000 nM
CN1CCC2CN(c3ccc4nc5n(c4c3)C34CCC(CN(CCOc6c(cnn6C)-c6cc(cn(C)c6=O)C(=O)N5)C3)C4)CC21 (single isomer, unassigned) [Example A79A] : > 5000 nM
Cn1ncc2c1OCCN1CC3CCC(CC3)(C1)n1c(nc3cc(F)ccc31)NC(=O)c1cc-2c(=O)n(C)c1 : > 5000 nM
C[C@@H]1CCCOc2c(cnn2C)-c2cc(cn(C)c2=O)C(=O)Nc2nc3ccc(N4CCC5(CCN(C)C5)CC4)cc3n2C1 : 2.2 nM
CN(C)CCN(C)c1ccc2nc3n(c2c1)C12CCC(CN(CCOc4c(cnn4C)-c4cc(cn(C)c4=O)C(=O)N3)C1)C2 (single isomer, unassigned) [Example A85A] : > 5000 nM

Now let's try a different one.
Q) For the compound shown here, C[C@@H]1CCCOc2c(cnn2C)-c2cc(cn(C)c2=O)C(=O)Nc2nc3ccc(N4CCC(N(C)C)C(F)C4)cc3n2C1 (stereo partly drawn) , give the reported IC50.
A) 2.7 nM

====

We begin with a simple list: items and their reported IC50.
Measured on: EGFR[T790M/C797S/L858R] (Homo sapiens, UniProt P00533, C797S/L858R/T790M)
Construct: purchased Carna Bio
Sequence (P00533 25-1210 T790M/C797S/L858R): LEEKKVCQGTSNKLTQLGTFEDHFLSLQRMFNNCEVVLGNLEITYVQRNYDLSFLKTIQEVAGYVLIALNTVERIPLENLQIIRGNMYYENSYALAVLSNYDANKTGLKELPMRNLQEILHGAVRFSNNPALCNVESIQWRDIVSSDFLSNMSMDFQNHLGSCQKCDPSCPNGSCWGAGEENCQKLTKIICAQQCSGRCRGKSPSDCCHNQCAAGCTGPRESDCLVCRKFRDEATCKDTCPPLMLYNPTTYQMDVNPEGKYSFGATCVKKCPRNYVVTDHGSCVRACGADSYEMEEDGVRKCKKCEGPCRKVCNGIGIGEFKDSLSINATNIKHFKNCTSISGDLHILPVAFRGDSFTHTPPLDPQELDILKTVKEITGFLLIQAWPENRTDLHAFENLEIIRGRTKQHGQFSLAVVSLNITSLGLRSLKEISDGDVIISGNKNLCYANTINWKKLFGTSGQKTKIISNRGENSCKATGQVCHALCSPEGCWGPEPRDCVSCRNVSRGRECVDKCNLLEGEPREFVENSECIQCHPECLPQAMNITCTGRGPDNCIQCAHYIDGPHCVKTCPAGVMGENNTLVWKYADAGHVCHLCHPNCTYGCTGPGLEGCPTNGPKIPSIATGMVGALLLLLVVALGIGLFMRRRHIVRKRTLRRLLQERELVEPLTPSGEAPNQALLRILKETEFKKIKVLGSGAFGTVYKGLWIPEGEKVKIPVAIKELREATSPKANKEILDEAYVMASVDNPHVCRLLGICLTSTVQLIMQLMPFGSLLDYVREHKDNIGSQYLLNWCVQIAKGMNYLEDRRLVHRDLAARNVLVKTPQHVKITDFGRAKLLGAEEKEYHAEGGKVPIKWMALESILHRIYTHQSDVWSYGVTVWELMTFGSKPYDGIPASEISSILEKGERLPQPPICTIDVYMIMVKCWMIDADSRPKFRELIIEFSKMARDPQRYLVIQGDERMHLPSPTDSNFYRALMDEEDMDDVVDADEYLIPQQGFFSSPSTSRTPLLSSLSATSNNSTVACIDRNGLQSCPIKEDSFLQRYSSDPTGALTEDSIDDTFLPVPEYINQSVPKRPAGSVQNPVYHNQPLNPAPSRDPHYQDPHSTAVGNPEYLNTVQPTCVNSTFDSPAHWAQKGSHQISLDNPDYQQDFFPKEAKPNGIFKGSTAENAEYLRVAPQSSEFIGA
Test protocol: Inhibition of EGFR[T790M/C797S/L858R] biochemical enzymatic activity (HTRF)
Condition notes: EGFR T790M-C797S-L858R, 1 mM ATP, 1 h, room temperature, read-out: IC50 (nM) @T790M- C797S - L858R
The figure you give is taken to be in nM; do not add the unit.

Example cases with answers are listed next.
C[C@@H]1CCCOc2c(cnn2C)-c2cc(cn(C)c2=O)C(=O)Nc2nc3ccc(N4CCN(C5COC5)CC4)cc3n2C1 [Example A39] : 8.2
C[C@@H]1CCCOc2c(cnn2CC(F)(F)F)-c2cc(cn(C)c2=O)C(=O)Nc2nc3ccc(N4CCN(C)CC4)cc3n2C1 [Example A20] : 76

Q) For the compound shown here, Cn1ncc2c1OCCN1CC(CCC1(C)C)n1c(nc3ccc(N4CCOCC4)cc31)NC(=O)c1cc-2c(=O)n(C)c1 (stereo not shown) [Example A12] , give the reported IC50.
A) 486

Q) Again, but for Cn1ncc2c1OCCN(CC(F)(F)F)CCn1c(nc3ccccc31)NC(=O)c1cc-2c(=O)n(C)c1 [Example A1]
A) 121

Q) Again, but for CN(C)[C@H]1CCN(c2ccc3nc4n(c3c2)C23CCC(CN(CCOc5c(cnn5C)-c5cc(cn(C)c5=O)C(=O)N4)C2)C3)C1 (single isomer, unassigned) [Example A66B]
A) 3.2

Q) Again, but for CN1CC2(CCN(c3ccc4nc5n(c4c3)C34CCC(CN(CCOc6c(cnn6C)-c6cc(cn(C)c6=O)C(=O)N5)C3)C4)C2)C1 (single isomer, unassigned) [Example A73B]
A) 1.9

Q) Again, but for C[C@@H]1CCCOc2c(cnn2C)-c2cc(cn(C)c2=O)C(=O)Nc2nc3ccc(N4CCN(C(=O)OC(C)(C)C)CC4)cc3n2C1 [Example A54]
A) 10

Q) Again, but for Cn1ncc2c1OCCN1CC3CCC(C3)(C1)n1c(nc3ccc(N4CCN(C5CC5)CC4)cc31)NC(=O)c1cc-2c(=O)n(C)c1 (single isomer, unassigned) [Example A83B]
A) 2.3

Q) Again, but for CN(C)C1CN(c2ccc3nc4n(c3c2)C23CCC(CN(CCOc5c(cnn5C)-c5cc(cn(C)c5=O)C(=O)N4)C2)C3)CC1F (single isomer, unassigned) [Example A84C]
A) 3.5

Q) Again, but for Cn1ncc2c1OCCN1CC3CCC(C3)(C1)n1c(nc3cc(Br)ccc31)NC(=O)c1cc-2c(=O)n(C)c1 (stereo not shown) [Example A59]
A) 807

Q) Again, but for CN(C)C1CCN(c2ccc3nc4n(c3c2)C23CCC(CN(CCOc5c(cnn5C)-c5cc(cn(C)c5=O)C(=O)N4)C2)C3)CC1 (single isomer, unassigned) [Example A64B]
A) 1.9

Q) Again, but for CN1CCC12CCN(c1ccc3nc4n(c3c1)C13CCC(CN(CCOc5c(cnn5C)-c5cc(cn(C)c5=O)C(=O)N4)C1)C3)CC2 (single isomer, unassigned) [Example A67B]
A) 1.1
